Sourced from patent US8710089B2

- testedSystem: human GHS-R 1a (Homo sapiens, UniProt Q92847)
- Sequence (Q92847 whole entry): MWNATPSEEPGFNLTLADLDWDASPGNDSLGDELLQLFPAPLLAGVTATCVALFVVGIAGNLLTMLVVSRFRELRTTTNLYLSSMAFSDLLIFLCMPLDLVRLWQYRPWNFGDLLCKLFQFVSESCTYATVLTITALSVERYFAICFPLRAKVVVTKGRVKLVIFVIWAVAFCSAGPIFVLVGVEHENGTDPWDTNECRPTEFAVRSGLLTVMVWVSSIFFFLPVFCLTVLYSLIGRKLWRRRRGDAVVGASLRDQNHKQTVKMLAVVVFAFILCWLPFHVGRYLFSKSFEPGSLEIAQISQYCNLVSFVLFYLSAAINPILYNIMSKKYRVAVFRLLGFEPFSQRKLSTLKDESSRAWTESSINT
- assayDetails: GHS-R 1a receptor-ligand binding assay (membrane preparations from transfected LLC PK-1 cells)
- cond: displacement of 125I-His9-ghrelin (60 pM); membranes of LLC PK-1 cells transfected with human GHS-R 1a; mean of at least two independent experiments in triplicates
Answer each item with its documented IC50.
One number for each entry, in nM.

{"compound": "CC(C)(N)C(=O)N[C@H](Cc1c[nH]c2ccccc12)c1nnc(CCc2ccccc2)n1Cc1ccccc1 [compound 173]", "displayUnit": "nM", "IC50": 114}
{"compound": "COc1ccc(Cn2c(CCCc3ccccc3)nnc2[C@@H](Cc2c[nH]c3ccccc23)NC(=O)C(C)(C)N)cc1 [compound 22]", "displayUnit": "nM", "IC50": 12}

Parameters: items (list). Returns: IC50 for each item.
1. COc1ccc(Cn2c(CCc3c[nH]c4ccccc34)nnc2[C@@H](Cc2c[nH]c3ccccc23)NC(=O)Cc2ccccn2)c(OC)c1 [compound 61]
2. CC(C)(N)C(=O)N[C@H](Cc1c[nH]c2ccccc12)c1nnc(CCCc2c[nH]c3ccccc23)n1CCc1ccccc1 [compound 3]
3. COc1ccc(Cn2c(CCc3ccccc3)nnc2[C@@H](Cc2c[nH]c3ccccc23)NC(=O)c2ccccn2)c(OC)c1 [compound 64]
4. COc1ccc(Cn2c(CCc3ccccc3)nnc2[C@@H](Cc2c[nH]c3ccccc23)NC(=O)C2CCNCC2)cc1 [compound 44]
5. COc1ccc(Cn2c(CCc3c[nH]c4ccccc34)nnc2[C@@H](Cc2c[nH]c3ccccc23)NC(=O)Cc2ccccn2)cc1 [compound 91]
6. COc1ccc(Cn2c(CCc3ccccc3)nnc2[C@@H](Cc2c[nH]c3ccccc23)NC(=O)[C@@H]2CCCN2)c(OC)c1 [compound 68]
7. CC(C)(N)C(=O)N[C@H](Cc1c[nH]c2ccccc12)c1nnc(CCc2c[nH]c3ccccc23)n1Cc1cccc2ccccc12 [compound 5]

1: 34; 2: 14; 3: 1.1; 4: 0.6; 5: 11; 6: 44; 7: 125

###

- testedSystem: human GHS-R 1a (Homo sapiens, UniProt Q92847)
- assayDetails: GHS-R 1a receptor-ligand binding assay (membrane preparations from transfected LLC PK-1 cells)
- cond: displacement of 125I-His9-ghrelin (60 pM); membranes of LLC PK-1 cells transfected with human GHS-R 1a; mean of at least two independent experiments in triplicates
Answer each item with its documented pIC50.
Answers are plain numbers, as −log10 of the molar value.

{"inputSmiles": "CC(C)(N)C(=O)N[C@H](Cc1c[nH]c2ccccc12)c1nnc(CCCc2c[nH]c3ccccc23)n1CCc1c[nH]c2ccccc12", "measurement": 7.54}
{"inputSmiles": "COc1ccc(Cn2c(CCc3c[nH]c4ccccc34)nnc2[C@@H](Cc2c[nH]c3ccccc23)NC(=O)C2CCNCC2)c(OC)c1", "measurement": 9.30}

Now for the molecule whose pIC50 we want.
State its pIC50 on human GHS-R 1a (Homo sapiens, UniProt Q92847): COc1ccc(Cn2c(CCc3ccccc3)nnc2[C@@H](Cc2c[nH]c3ccccc23)NC(=O)c2cnccn2)cc1 7.85

###

- testedSystem: human GHS-R 1a (Homo sapiens, UniProt Q92847)
- assayDetails: GHS-R 1a receptor-ligand binding assay (membrane preparations from transfected LLC PK-1 cells)
- cond: displacement of 125I-His9-ghrelin (60 pM); membranes of LLC PK-1 cells transfected with human GHS-R 1a; mean of at least two independent experiments in triplicates
quantityMeasured: IC50

Parameters: items (list). Returns: IC50 for each item.
1. O=C(N[C@H](Cc1c[nH]c2ccccc12)c1nnc(CCc2c[nH]c3ccccc23)n1-c1ccccc1)C1CCNCC1
2. COc1ccc(Cn2c(CCc3ccccc3)nnc2[C@@H](Cc2c[nH]c3ccccc23)NC(=O)C(C)(C)N)c(OC)c1
3. COc1ccc(Cn2c(CCc3ccccc3)nnc2[C@@H](Cc2c[nH]c3ccccc23)NC(=O)CCN)cc1
4. COc1ccc(Cn2c(CCc3ccccc3)nnc2[C@@H](Cc2c[nH]c3ccccc23)NC(=O)C2CCCCC2)cc1
5. CC(C)(N)C(=O)N[C@H](Cc1c[nH]c2ccccc12)c1nnc(CCc2c[nH]c3ccccc23)n1Cc1ccc(Br)cc1
6. COc1cccc(Cn2c(CCc3c[nH]c4ccccc34)nnc2[C@@H](Cc2c[nH]c3ccccc23)NC(=O)C(C)(C)N)c1
7. COc1ccc(Cn2c(CCCc3c[nH]c4ccccc34)nnc2[C@@H](Cc2c[nH]c3ccccc23)NC(=O)C(C)(C)N)cc1
8. COc1ccc(Cn2c(CCc3c[nH]c4ccccc34)nnc2[C@@H](Cc2c[nH]c3ccccc23)NC(=O)C2CCNCC2)cc1

1. 0.07 µM
2. 0.062 µM
3. 0.059 µM
4. 0.018 µM
5. 0.2 µM
6. 0.018 µM
7. 0.037 µM
8. 0.0003 µM

Parameters: items (list). Returns: IC50 for each item.
1. CCc1ccc(Cn2c(CCc3ccccc3)nnc2[C@@H](Cc2c[nH]c3ccccc23)NC(=O)[C@H]2CCCNC2)cc1
2. COc1ccc(Cn2c(CCc3ccccc3)nnc2[C@@H](Cc2c[nH]c3ccccc23)NC(=O)[C@H]2CCCCN2)c(OC)c1
3. O=C(N[C@H](Cc1c[nH]c2ccccc12)c1nnc(CCc2ccccc2)n1Cc1cccs1)C1CCNCC1
4. COc1ccc(Cn2c(CCc3ccccc3)nnc2[C@@H](Cc2c[nH]c3ccccc23)NC(=O)[C@H]2CCCN2)cc1
5. CC(C)(C)Sc1nnc([C@@H](Cc2c[nH]c3ccccc23)NC(=O)C(C)(C)N)n1Cc1ccco1 [Example 39 from WO 00/54729 A2, reference compound]

["0.188 µM", "0.21 µM", "0.255 µM", "0.027 µM", "~5 µM"]
